Tested on: JEV (Japanese encephalitis virus)
Test: Inhibition of viral replication (CPE) at cellular level, JEV in Vero
Settings: Japanese encephalitis virus, Vero
pIC50: −log10 of the molar value.
Please use Satisfied whenever pIC50 is not below 7, and Not satisfied whenever it is.

**Q:** API: above_or_equal(metric=pIC50, cutoff=7) for item CCN(/N=C/c1ccccc1C(=O)O)c1nc(-c2ccccc2Cl)cs1
**A:** Not satisfied

----------
Quick reference for SI (TC50/IC50) among some molecules
Test system: RSV (human respiratory syncytial virus)
Experiment: Inhibition of viral replication (CPE) at cellular level, RSV in Vero
Conditions: RSV in host cell Vero
No unit in the answer, please; the number alone is enough.

| query_smiles | SI (TC50/IC50) |
| --- | --- |
| CCN(/N=C/c1ccccc1C(=O)O)c1nc(-c2ccccc2Cl)cs1 | 4 |
| CN(/N=C/c1ccc(C(F)(F)F)cc1C(=O)O)c1nc(-c2ccccc2Cl)cs1 | 5.5 |
| Cc1sc(N(C)/N=C/c2ccccc2C(=O)O)nc1-c1ccccc1 | 11.7 |
| Cc1ccc(/C=N/N(C)c2nc(-c3ccccc3Cl)cs2)c(C(=O)O)c1 | 15 |
| O=C(O)c1cc(F)c(F)cc1/C=N/Nc1nc(-c2ccccc2Cl)cs1 | 19 |
| Cc1sc(N/N=C/c2ccccc2C(=O)O)nc1-c1ccccc1 | 5.6 |

Record O=C(O)c1cc(C(F)(F)F)ccc1/C=N/Nc1nc(-c2ccccc2Cl)cs1 / RSV (human respiratory syncytial virus), SI (TC50/IC50) recorded as 14

# value of SI (TC50/IC50), RSV (human respiratory syncytial virus), item O=C(O)c1ccccc1/C=N/Nc1nc(-c2cc(Cl)ccc2Cl)cs1 = 19

----------
Test: in vitro
Conditions: dog, TC50, host cell MDCK, H3N2 table
Rule: CC50 below 90 µM gives Met, anything at or above gives Not met.

| compound | classification |
| --- | --- |
| CCCN(/N=C/c1ccccc1C(=O)O)c1nc(-c2ccccc2Cl)cs1 [Compound 3] | Met |
| Cc1sc(N(C)/N=C/c2ccccc2C(=O)O)nc1-c1ccccc1Cl [Compound 13] | Not met |
| CN(/N=C/c1ccccc1C(=O)O)c1nc(-c2cc(Cl)ccc2Cl)cs1 [Compound 19] | Met |
| CCCC(C)N(/N=C/c1ccccc1C(=O)O)c1nc(-c2ccccc2Cl)cs1 (stereo not drawn) [Compound 6] | Not met |
| CN(/N=C/c1ccccc1C(=O)O)c1nc(-c2ccccc2)cs1 [Compound 20] | Met |
| Cc1ccc(/C=N/N(C)c2nc(-c3ccccc3)c(C)s2)c(C(=O)O)c1 [Compound 11] | Not met |

**Q:** A record lists O=C(O)c1ccccc1/C=N/Nc1nc(-c2ccccc2)cs1 [Compound 18] . Is its CC50 below 90 µM?
**A:** Not met

----------
Test: in vitro
Conditions: dog
quantity_name: CC50

Entry O=C(O)c1ccccc1/C=N/Nc1nc(-c2ccccc2Cl)cs1 — recorded CC50 = > 50 µM

----------
Reported values of SI (TC50/IC50) for individual entries
Test system: H3N2 (influenza virus)
Details: H3N2 in host cell MDCK
Give the value as a plain number.

The cases that follow already have their SI (TC50/IC50) on record.
| compound | system_tested | SI (TC50/IC50) |
| --- | --- | --- |
| O=C(O)c1cc(F)ccc1/C=N/Nc1nc(-c2ccccc2Cl)cs1 | H3N2 (influenza virus) | 313 |
| CN(/N=C/c1ccc(F)cc1C(=O)O)c1nc(-c2ccccc2Cl)cs1 | H3N2 (influenza virus) | 320 |
| O=C(O)c1cc(C(F)(F)F)ccc1/C=N/Nc1nc(-c2ccccc2Cl)cs1 | H3N2 (influenza virus) | 456 |
| Cc1ccc(/C=N/N(C)c2nc(-c3ccccc3Cl)cs2)c(C(=O)O)c1 | H3N2 (influenza virus) | 137 |

Quick note, SI (TC50/IC50) for CN(/N=C/c1ccccc1C(=O)O)c1nc(-c2cc(Cl)ccc2Cl)cs1 landed at 47.8

In plain terms, CN(/N=C/c1ccccc1C(=O)O)c1nc(-c2ccccc2Cl)cs1 has a documented SI (TC50/IC50) of 125

SI (TC50/IC50) measured on O=C(O)c1cc(F)c(F)cc1/C=N/Nc1nc(-c2ccccc2Cl)cs1 = 477

get_value(item= Cc1sc(N(C)/N=C/c2ccccc2C(=O)O)nc1-c1ccccc1Cl , readout=SI (TC50/IC50)) returns 3.27

Consider CCC(C)N(/N=C/c1ccccc1C(=O)O)c1nc(-c2ccccc2Cl)cs1 (stereo not drawn) . Its measured SI (TC50/IC50) is 0.37

----------
Assay: in vitro
Details: dog, TC50
quantity_name: log10 CC50 (log10 of the value in µM)
Values reflect log10 of reported CC50 (µM).

Worked set:
| compound | endpoint_value |
| --- | --- |
| CCN(/N=C/c1ccccc1C(=O)O)c1nc(-c2ccccc2Cl)cs1 [Compound 2] | 1.36 |
| O=C(O)c1cc(F)c(F)cc1/C=N/Nc1nc(-c2ccccc2Cl)cs1 [Compound 23-1] | 2.09 |
| O=C(O)c1ccccc1/C=N/Nc1nc(-c2cc(Cl)ccc2Cl)cs1 [Compound 55] | 2.74 |
| O=C(O)c1cc(C(F)(F)F)ccc1/C=N/Nc1nc(-c2ccccc2Cl)cs1 [Compound 8-1] | 2.06 |

// recorded log10 CC50 for Cc1ccc(/C=N/N(C)c2nc(-c3ccccc3)c(C)s2)c(C(=O)O)c1 [Compound 11] : 1.73

get_value(item= CN(/N=C/c1ccc(C(F)(F)F)cc1C(=O)O)c1nc(-c2ccccc2Cl)cs1 [Compound 8] , readout=log10 CC50) returns 1.69

GET /value?item= CN(/N=C/c1cc(F)c(F)cc1C(=O)O)c1nc(-c2ccccc2Cl)cs1 [Compound 23] &field=log10 CC50 returns 1.73

In plain terms, CN(/N=C/c1ccc(F)cc1C(=O)O)c1nc(-c2ccccc2Cl)cs1 [Compound 10] has a documented log10 CC50 of 1.51

get_value(item= Cc1sc(N(C)/N=C/c2ccccc2C(=O)O)nc1-c1ccccc1 [Compound 12] , readout=log10 CC50) returns 1.71

----------
System: H3N2 (influenza virus)
Assay: microbe, parasite or virus in culture
Conditions: Influenza A virus, H3N2, MDCK
quantity_name: IC50 (nM)
Report only the number, with the unit nM understood.

| query_smiles | system_tested | IC50, nM |
| --- | --- | --- |
| Cc1ccc(/C=N/Nc2nc(-c3ccccc3Cl)cs2)c(C(=O)O)c1 | H3N2 (influenza virus) | 270 |

So for Cc1ccc(/C=N/N(C)c2nc(-c3ccccc3Cl)cs2)c(C(=O)O)c1 , the logged IC50 turned out to be 190

Field IC50 (entry O=C(O)c1ccccc1/C=N/Nc1nc(-c2ccccc2Cl)cs1 ) reads 200

Reported IC50 ( O=C(O)c1cc(C(F)(F)F)ccc1/C=N/Nc1nc(-c2ccccc2Cl)cs1 ) = 250

IC50 recorded for this compound, CN(/N=C/c1ccc(F)cc1C(=O)O)c1nc(-c2ccccc2Cl)cs1 , is 100

----------
// reported CC50 per item
Assay: in vitro
Settings: African green monkey

| query_smiles | CC50 |
| --- | --- |
| O=C(O)c1cc(F)ccc1/C=N/Nc1nc(-c2ccccc2Cl)cs1 | 49 µM |

Record summary for CCN(/N=C/c1ccccc1C(=O)O)c1nc(-c2ccccc2Cl)cs1 : reported CC50 = 16 µM

CN(/N=C/c1ccccc1C(=O)O)c1nc(-c2ccccc2Cl)cs1 yielded CC50 of 12 µM

The measured CC50 associated with Cc1sc(N/N=C/c2ccccc2C(=O)O)nc1-c1ccccc1 reads 43 µM

----------
Experiment: in vitro
Conditions: African green monkey, TC50, host cell Vero, Zika Virus table
quantity_name: CC50 (µM)
Numbers only; they are read as µM.

| compound | quantity_name | endpoint_value |
| --- | --- | --- |
| CN(/N=C/c1ccc(C(F)(F)F)cc1C(=O)O)c1nc(-c2ccccc2Cl)cs1 [Compound 8] | CC50 | 19 |
| CN(/N=C/c1ccccc1C(=O)O)c1nc(-c2ccccc2Cl)cs1 [Compound 1] | CC50 | 13 |
| Cc1ccc(/C=N/Nc2nc(-c3ccccc3Cl)cs2)c(C(=O)O)c1 [Compound 9-1] | CC50 | 42 |

Note: attention shifts to another entry.
For O=C(O)c1ccccc1/C=N/Nc1nc(-c2cc(Cl)ccc2Cl)cs1 [Compound 55] the compound record lists CC50 as 68

----------
Assay: in vitro
Details: African green monkey, TC50, host cell Vero, RSV table
Could you please mark t for values of CC50 below 40 µM and f for values at or above it?

| compound | classification |
| --- | --- |
| O=C(O)c1ccccc1/C=N/Nc1nc(-c2ccccc2Cl)cs1 [Compound 16] | t |

**Q:** CC50 strictly < 40 µM for this compound? O=C(O)c1cc(F)c(F)cc1/C=N/Nc1nc(-c2ccccc2Cl)cs1 [Compound 23-1]
**A:** f

**Q:** Could you please tell me whether CC50 recorded for CN(/N=C/c1ccccc1C(=O)O)c1nc(-c2ccccc2Cl)cs1 [Compound 1] is less than 40 µM?
**A:** t

**Q:** Record CN(/N=C/c1ccc(F)cc1C(=O)O)c1nc(-c2ccccc2Cl)cs1 [Compound 10] : is its CC50 strictly below 40 µM?
**A:** t

**Q:** Consider O=C(O)c1ccccc1/C=N/Nc1nc(-c2cc(Cl)ccc2Cl)cs1 [Compound 55] . Does its CC50 lie strictly below 40 µM?
**A:** f

**Q:** Take the compound O=C(O)c1cc(C(F)(F)F)ccc1/C=N/Nc1nc(-c2ccccc2Cl)cs1 [Compound 8-1] and say whether its CC50 is less than 40 µM.
**A:** f

**Q:** Does the reported CC50 of Cc1ccc(/C=N/Nc2nc(-c3ccccc3Cl)cs2)c(C(=O)O)c1 [Compound 9-1] stay below 40 µM?
**A:** f

**Q:** Field: below-cutoff. Rule: recorded CC50 strictly less than 40 µM. Subject: Cc1ccc(/C=N/N(C)c2nc(-c3ccccc3Cl)cs2)c(C(=O)O)c1 [Compound 9]
**A:** t
